Each entry below carries its measured MIC, system: K. pneumoniae ATCC 700603.

q: Quick one: MIC for "O=[N+]([O-])c1ccc(O)c2ncccc12" ?
a: 84.1 µM

q: Look up MIC for this compound: "Oc1ccc(Cl)c2cccnc12"
a: 713 µM

q: Need MIC, item "Oc1c(I)cc(I)c2cccnc12"
a: > 645 µM

q: Query: MIC; subject: Nc1ccc(O)c2ncccc12 [5-amino-8HQ (8), 5-Amino-8-hydroxyquinoline]
a: 1100 µM

q: Recorded MIC for "Oc1c(I)cc(Cl)c2cccnc12" , please?
a: > 838 µM

q: Recorded MIC of Oc1cccc2cccnc12 [8HQ (1), 8-Hydroxyquinoline] , please.
a: 882 µM
